# credit: patent US20230391845A1

Below, each entry is listed with its recorded hGLP-1R CRE Luc EC50 (pM).
- SUBJECT OF TEST: human glucagon-like peptide 1 receptor (human, UniProt P43220 24-463)
- ASSAY REMARKS: cell-based or functional assay
Where no end group is shown, it is not given here. [ ]: non-standard residue; d: D form. Aib = CC(C)(N)C(=O)O
Kindly answer with a numeric value in pM, unit omitted.

H[Aib]HGTFTSDYSILLEKQAAQEFVQWLLEGGPSSGAPPPS-OH (not fully specified (residue 16); printed as H-Aib-HGTFTSDYSILLE-K[(2S)-2-amino-6-[[(2S)-2-amino-6-[[(4S)-4-carboxy-4-(17-carboxyheptadecanoylamino)butanoyl]amino]hexanoyl]amino]hexanoyl]-QAAQEFVQWLLEGGPSSGAPPPS-OH) [Compound No. 52] : 0.8
Y[Aib]QGTFTSDYSYYLEKQAA[Aib]EFVQWLLEGGPSSGAPPPS-NH2 (not fully specified (residue 16); printed as Y-Aib-QGTFTSDYSYYLE-K[(2S)-2-amino-6-[[(2S)-2-amino-6-[[(4S)-4-carboxy-4-(19-carboxynonadecanoylamino)butanoyl]amino]hexanoyl]amino]hexanoyl]-QAA-Aib-EFVQWLLEGGPSSGAPPPS-NH2) [Compound No. 47] : 5.6
H[Aib]HGTFTSDYSIYLEKKYA[Aib]EFVQWLLEGGPSSGAPPPS-NH2 (not fully specified (residue 16); printed as H-Aib-HGTFTSDYSIYLE-K[(2S)-2-amino-6-[[(2S)-2-amino-6-[[(4S)-4-carboxy-4-(17-carboxyheptadecanoylamino)butanoyl]amino]hexanoyl]amino]hexanoyl]-KYA-Aib-EFVQWLLEGGPSSGAPPPS-NH2) [Compound No. 38] : 2.8

Param item = H[Aib]HGTFTSDYSYYLEKQAA[Aib]EFVQWLLEGGPSSGAPPPS-NH2 (not fully specified (residue 16); printed as H-Aib-HGTFTSDYSYYLE-K[(2S)-2-amino-6-[[(2S)-2-amino-6-[[(4S)-4-carboxy-4-(19-carboxynonadecanoylamino)butanoyl]amino]hexanoyl]amino]hexanoyl]-QAA-Aib-EFVQWLLEGGPSSGAPPPS-NH2) [Compound No. 26] ; retrieve measured hGLP-1R CRE Luc EC50 (pM). 3.1

Quick one: Y[Aib]QGTFTSDYSIYLEKQAA[Aib]EFVNWLLAGGPSSGAPPPS-NH2 (not fully specified (residue 16); printed as Y-Aib-QGTFTSDYSIYLE-K[(2S)-2-amino-6-[[(2S)-2-amino-6-[[(4S)-4-carboxy-4-[[4-[(19-carboxynonadecanoylamino)methyl]cyclohexanecarbonyl]amino]butanoyl]amino]hexanoyl]amino]hexanoyl]-QAA-Aib-EFVNWLLAGGPSSGAPPPS-NH2) [Compound No. 13] 2.8
